max response values, listed per item
test: qHTS Assay for Lipid Storage Modulators (AID 1519); conditions: Drosophila S3 cells, BODIPY lipid droplet/cell ratio, laser cytometry; measured here: cell count channel max response; cells loaded with oleic acid
Records with an inconclusive call do not appear.
Your answer should be a plain number; it is taken to be in %.

Query string: Item C[N+](C)(C)CCCCCCCCCC[N+](C)(C)C has what recorded max response?
Result string: -13.2

Query string: Item C#CCN(C)CCCOc1ccc(Cl)cc1Cl has what recorded max response?
Result string: -6.58

Query string: Item NC(Cc1ccc(Cl)cc1)C(=O)O (stereo unspecified) has what recorded max response?
Result string: 16.7

Query string: Item NC(=O)N1c2ccccc2C=Cc2ccccc21 has what recorded max response?
Result string: -0.817

Query string: Item CC1=C(C)C(=O)C(CCCCC#CCCCC#CCO)=C(C)C1=O has what recorded max response?
Result string: -22.7

Query compound follows.
Query string: Item CCCN(CCC)CCc1cccc2c1CC(=O)N2 has what recorded max response?
Result string: 9.72

* * *

test system: MKL-1; experiment: qHTS assay to identify novel small-molecules to repurpose for Merkel cell carcinoma treatment (AID 1296009); settings: MCC and control cell lines, CellTiter-Glo viability, 72 h; series mostly up to 46 µM; note: nearly all actives have a fitted effect of over 60% in size
Inconclusive results are not listed. The source made the active and inactive calls. Calls come from the whole dose curve; as a rule, active = well fitted inhibition curve with a large enough effect; inconclusive = small, poorly fitted or top-dose-only effect; inactive = flat fitted curve, though single readings scatter.
I would appreciate it if you answered using one of these outcomes: 1.0 = active, 0.0 = inactive

Consider the worked cases shown below.
Query string: Recorded call for CN(C)C/C=C(/c1ccc(Br)cc1)c1cccnc1 ?
Result string: 0.0

Query string: Recorded call for NC/C=C/C(=O)O ?
Result string: 0.0

Query string: Recorded call for CC(=O)[C@]1(O)Cc2c(O)c3c(c(O)c2[C@@H](O[C@H]2C[C@H](N)[C@H](O)[C@H](C)O2)C1)C(=O)c1ccccc1C3=O ?
Result string: 1.0

Query string: Recorded call for CC(=O)OC(C)C[N+](C)(C)C (configuration not stated) ?
Result string: 0.0

Query string: Recorded call for CN(C(=O)CCCOc1ccc2[nH]c(=O)ccc2c1)C1CCCCC1 ?
Result string: 0.0

Below: the item to evaluate.
Query string: Recorded call for CCn1ccnc1CC1COc2ccccc2O1 (configuration not stated) ?
Result string: 0.0

* * *

test: qHTS assay to identify small molecule inhibitors of chordoma cells - UCH-2 (AID 1259356); settings: UCH-2 chordoma viability, CellTiter-Glo ATP luminescence, 48 h; series mostly up to 46.1 µM; note: % is set by controls: 0 for no effect and ±100 for the full control effect
Results filed as inconclusive are left out. The source made the active and inactive calls. Calls come from the whole dose curve; as a rule, active = well fitted cell-killing curve with a large enough effect; inconclusive = small, poorly fitted or top-dose-only effect; inactive = flat fitted curve, though single readings scatter.
I would appreciate it if you answered using one of these outcomes: Yes (active), No (inactive)

Consider the worked cases shown below.
Query string: Recorded call for COc1ccc(CN(CCN(C)C)c2ccccn2)cc1 ?
Result string: No

Query string: Recorded call for NC(=O)c1ncn([C@@H]2O[C@H](CO)[C@@H](O)[C@H]2O)c1O ?
Result string: No

Below: the item to evaluate.
Query string: Recorded call for COc1ccc2c(c1OC)C(=O)O[C@@H]2[C@H]1c2c(cc3c(c2OC)OCO3)CCN1C ?
Result string: No

* * *

test system: CP191; experiment: qHTS profiling for inhibitors of Plasmodium falciparum proliferation (AID 504749); note: nearly all actives have a fitted effect of over 60% in size; conditions: P. falciparum in erythrocytes, SYBR Green DNA, 72 h; series mostly up to 28.7 µM
Inconclusive results are not listed. Activity calls are given as the source filed them. Calls come from the whole dose curve; as a rule, active = well fitted inhibition curve with a large enough effect; inconclusive = small, poorly fitted or top-dose-only effect; inactive = flat fitted curve, though single readings scatter.
I would appreciate it if you answered using one of these outcomes: TRUE (active), FALSE (inactive)

Query string: Recorded call for CC(=O)Nc1nnc(S(N)(=O)=O)s1 ?
Result string: FALSE

Query string: Recorded call for CN(C)C(=O)Oc1cccc([N+](C)(C)C)c1 ?
Result string: FALSE

Query string: Recorded call for NC(=O)c1ncn([C@@H]2O[C@H](CO)[C@@H](O)[C@H]2O)c1O ?
Result string: FALSE

Query string: Recorded call for FC(F)(F)c1ccccc1-n1ccnc1 ?
Result string: FALSE

Query string: Recorded call for NC(Cc1ccc(Cl)cc1)C(=O)O (centres undefined) ?
Result string: FALSE

Query string: Recorded call for CCN(CC)CC(=O)Nc1c(C)cccc1C ?
Result string: FALSE

Further cases:
Query string: Recorded call for c1cnc(N2CCN(Cc3ccc4c(c3)OCO4)CC2)nc1 ?
Result string: FALSE

Query string: Recorded call for C[N+](C)(C)CCCCCCCCCC[N+](C)(C)C ?
Result string: TRUE

Query string: Recorded call for CN(C)CCN(Cc1cccs1)c1ccccn1 ?
Result string: FALSE

Query string: Recorded call for CC(N=C(NC#N)Nc1ccncc1)C(C)(C)C (centres undefined) ?
Result string: FALSE

Query string: Recorded call for CN(C)C(=O)Oc1ccc[n+](C)c1 ?
Result string: FALSE
